Property: IC50; scope: individual binders
assay_system: T1, recombinant human PD-L2-Fc-biotin (human, UniProt Q9BQ51 20-220, biotin)
T1 chain: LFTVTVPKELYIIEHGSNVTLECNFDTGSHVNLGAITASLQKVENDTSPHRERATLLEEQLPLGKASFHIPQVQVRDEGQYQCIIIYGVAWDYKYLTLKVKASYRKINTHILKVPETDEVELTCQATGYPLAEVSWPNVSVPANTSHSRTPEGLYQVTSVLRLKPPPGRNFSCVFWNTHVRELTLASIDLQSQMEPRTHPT
protocol_summary: blocking of PD-L2 - PD-1 interaction (cell binding); low antigen concentration
Hi! Could you send only the number? It should be in nM, unit omitted.

Illustrative cases are given below, each with its answer.
- binder: "10A9-D2 (antibody, V domains shown, Both formats under this entry) VH: QVQLQESGPGLVKPSETLSLTCAVSGGSISSSYWWSWVRQPPGKGLEWVGEVFHVGVTNYNPSLKSRVTISVDKSKNQFSLKLTSVTAADTAVYYCARVTGTTGYYHGLDVWGQGTTVTVFS VL: DIQMTQSPSSLSASVGDRVTITCRASQGIRNDLGWYQQKPGKVPKRLIYAASSLQSGIPSRFSGSGSGTEFTLTISSLQPEDFATYYCLQHNNYPRTFGQGTKVEIK"
  reported_endpoint: "IC50"
  recorded_value: 0.0103
- binder: "10D1-G1 (antibody, V domains shown, Both formats under this entry) VH: QVQLQESGPGLVKPSGTLSLTCAVSGGSISSSYWWSWVRQPPGKGLEWIGEIFHIGSTNYNPSLRSRVTISVVKSKNQFSLNLNSVTAADTAVYFCARVSGGYGYFSGMDVWGQGTTVTVSS VL: DIQMTQSPSSLSASVGDRVTITCRASQGIRNDLGWYQQKPGKAPKRLIYGASSLQSGVPSRFSGSGSGTEFTLTISSLQPEDFATYYCLQHNSYPRTFGQGTKVEIK"
  reported_endpoint: "IC50"
  recorded_value: 0.0252

Exercise: Input 7H5-C5 (antibody, V domains shown, Both formats under this entry) VH: QVQLVESGGGLVKPGGSLRLSCAASGFSLSDYYMSWTRQAPGRGLEWVSFISSSGSTIYYVDSVKGRFTISRDHAKNSLYLQINSLRAEDTAVYYCARAQWLPDFDYWGQGTLVTVSS VL: QSALTQPPSASGSPGQSVTISCTGTSSDVSGYNYVSWYQHHPDKAPKLLIYEVNKRPSGVPARFSGSKSGNTASLTVSGLQAEDEADYYCTSFADNNNVVFGGGTKLTVLG , output reported IC50.
Key: 0.0311
